- Tested system: human glucagon-like peptide 1 receptor (human, UniProt P43220 24-463)
- Procedure summary: cell-based or functional assay
Where no end group is shown, it is not given here. [ ]: non-standard residue; d: D form. Aib = CC(C)(N)C(=O)O
Recorded metric: hGLP-1R CRE Luc EC50 (pM)
Only the number, expressed in pM, is required.

State its hGLP-1R CRE Luc EC50 (pM): Y[Aib]QGTFTSDYSILLEKQAA[Aib]EFVQWLLEGGPSSGAPPPS-NH2 (not fully specified (residue 16); printed as Y-Aib-QGTFTSDYSILLE-K[(2S)-2-amino-6-[[(2S)-2-amino-6-[[(4S)-4-carboxy-4-(19-carboxynonadecanoylamino)butanoyl]amino]hexanoyl]amino]hexanoyl]-QAA-Aib-EFVQWLLEGGPSSGAPPPS-NH2) [Compound No. 46]
8.3
